# System: MOLT-4
# assay_notes: NCI tumour cell line growth inhibition, 48 h
Activity calls are given as the source filed them. Rule as the data show it: active = GI50 up to about 1.1 µM and inactive = higher.
// allowed return values: active, inactive

INPUT: Each compound tested received a call. Report the one for COc1ccc2nc3cc(Cl)ccc3c(NCCC(=O)OCC(O)C(O)C(O[C@H](C)C(=O)NC(C)C(=O)NC(CCC(N)=O)C(=O)OCc3ccccc3)C(C=O)NC(C)=O)c2c1 (some centres undefined) .
OUTPUT: inactive

INPUT: What outcome does the record of this test show for `CCN(CC)CCCNc1nc(=O)[nH]c(C)c1C(=O)Nc1cccc2cc3ccccc3cc12` ?
OUTPUT: inactive

INPUT: Dear all, I need the recorded test outcome for `O=C(O)CCSCCCN1C(=O)c2ccccc2C1=O` , thank you.
OUTPUT: inactive

INPUT: Hi, do you know how `O=C1NCC2(CCNCC2)N1c1ccccc1` came out in this test?
OUTPUT: inactive

INPUT: Give the logged outcome of this assay for the following compound: C/C=C1\C(=O)OC2CCN3CCC(COC(=O)C(C)(O)C(C)C1O)C23 (centres undefined)
OUTPUT: inactive

INPUT: Tell me the recorded outcome of this test for `CCOC(=O)NN1C(=O)C(=P(c2ccccc2)(c2ccccc2)c2ccccc2)C(C(=O)OCC)=C1C` .
OUTPUT: inactive

INPUT: Could you check what this test reported for `CCSCCCC(=O)O` ?
OUTPUT: inactive

INPUT: Tell me the recorded outcome of this test for `COc1ccc(-c2c(C#N)c(S)n(NS(=O)(=O)c3ccccc3)c(=O)c2C#N)cc1` .
OUTPUT: inactive

INPUT: For `COc1cc2c(cc1OC(=O)c1cc3ccccc3[nH]1)N=C[C@@H]1CCCN1C2=O` , which call appears in the assay record?
OUTPUT: active

INPUT: Which outcome was entered for the compound C/C=C1\CC(C(=O)OCC)CCCCCCC1=O (centres undefined) in this test?
OUTPUT: inactive

INPUT: Could you kindly confirm the outcome this assay logged for `O=CNNC(=O)CSc1nc2ccc(I)cc2c(=O)n1Cc1ccccc1` ?
OUTPUT: active

INPUT: // outcome(item) with item = `Cc1csc(-n2c(C)nc3cc(Cl)ccc3c2=O)n1`
OUTPUT: inactive

INPUT: Hi, sorry to bother you, what did the test record for `COC(=O)/C(=C\C(=O)c1ccc(Br)cc1)NN=C(c1ccccc1)c1ccccc1` ?
OUTPUT: inactive

INPUT: I'd appreciate the recorded outcome for CCOC(=O)C1Nc2ccccc2[C@H]2OCC[C@@H]12 (some centres undefined) from this test.
OUTPUT: inactive

INPUT: Test call for this compound, please: `CCOC(=O)c1c(Nc2ccccc2)sc2cccnc12`
OUTPUT: inactive

INPUT: Status in this test for `Nc1cc(OCC2CCCCC2)nc(N)n1` ?
OUTPUT: inactive

INPUT: Which result was noted for this compound in the test: `O=C(CCc1cccc(O)c1)NCCc1cccc(OCc2ccccc2)c1`
OUTPUT: inactive

INPUT: Kindly provide the recorded test outcome for the following compound: O=C(Cc1ccccc1)C(c1ccccc1)S(=O)(=O)c1ccccc1 (centres undefined)
OUTPUT: inactive

INPUT: So what was the verdict on `COc1cc2cc3c4c(cc(OC)c(OC)c4c2cc1OC)CCN3C(=O)CCC(=O)O` in this test?
OUTPUT: inactive

INPUT: For `COC(=O)CC(=O)C[P+](c1ccccc1)(c1ccccc1)c1ccccc1` , what call appears in the results of this test?
OUTPUT: inactive

INPUT: Write down the call the test reported for this compound. Item: `O=C1NCC2(CCNCC2)N1`
OUTPUT: inactive

INPUT: For `COn1cc(CO)c2ccccc21` , which call appears in the assay record?
OUTPUT: inactive

INPUT: Would you mind telling me which call this test gave `COC(=O)/C=C1/OC(c2ccccc2)=C(Br)C1=O` ?
OUTPUT: inactive

INPUT: Which result was noted for this compound in the test: C=C1CCC23CC(CC[C@@H]2[C@@]12C[C@@H](c1ccoc1)OC2=O)OC3=O (some centres undefined)
OUTPUT: inactive

====

# System: CAKI-1
# assay_notes: NCI tumour cell line growth inhibition, 48 h
Activity calls are given as the source filed them. Rule as the data show it: active = GI50 up to about 1.1 µM and inactive = higher.
property_label: GI50

# compound `COc1ccc(-c2nc(SCC(=O)N/N=C/c3ccc(O)c(OC)c3)[nH]c2-c2ccc(OC)cc2)cc1` ; its GI50 = 54.3 µM (inactive)

Field GI50 (entry `CCN(CC)C(=S)SS(=O)(=O)c1ccc(NC(C)=O)cc1` ) reads 18.8 µM (inactive)

Quick note, GI50 for O=C(O)c1c(CC(Cc2ccccc2)C(=O)O)ccc2c1CCC2 (stereo not drawn) landed at > 100 µM (inactive)

GET /value?item= Cc1ccc(C(=O)O)c(CC2Cc3c(C)cccc3C2=O)c1 (stereo not drawn) &field=GI50 returns > 100 µM (inactive)

Entry CC(C)C(C/C=C1/CC(CO)(COC(=O)C(C)(C)C)OC1=O)C(C)C (stereo not drawn) , GI50 reported as 3.3 µM (inactive)

The compound `COc1ccc(NC(=O)CC(=O)N/N=C/c2ccc(N(CCC#N)S(=O)(=O)c3ccccc3)cc2)cc1` showed GI50 equal to > 100 µM (inactive)

Please fill in: GI50 reported for CCOC(=O)c1ccc2c(c1)nc1n2C(c2c(F)cccc2F)SC1 (stereo not drawn) = 78.3 µM (inactive)

// recorded GI50 for `COC(=O)[C@H](CC(C)C)NC1=C(Cl)C(=O)c2c(O)ccc(O)c2C1=O` : > 10 µM (inactive)

For CCCCCCCCCCCCC(O)C1CCC(C(O)CCCCCCC(O)CCCCCCCC2=CC(C)OC2=O)O1 (stereo not drawn) the compound record lists GI50 as 24.9 µM (inactive)

Entry under test: CCOC(=O)C1c2[nH]c3ccccc3c2CCN1C(=O)c1ccc(OC)o1 (stereo not drawn) . Its GI50 was > 10 µM (inactive)

Looking up `Cc1cc2nc(CC(C(F)(F)F)C(F)(F)F)oc2cc1C` , I see its GI50 listed as 2.07 µM (inactive)

Form: compound = `O=C1NC(N2CCCCC2)=N/C1=C\c1ccccc1` ; GI50 = > 100 µM (inactive)

Form: compound = `O=C(/C=C1\C[C@H]2C=Nc3ccccc3C(=O)N2C1)NCCCCCNC(=O)/C=C1\C[C@H]2C=Nc3ccccc3C(=O)N2C1` ; GI50 = 2.6 µM (inactive)

====

# Tested on: HCC 2998
# assay_notes: NCI tumour cell line growth inhibition, 48 h
Activity calls are given as the source filed them. Cut-off read from the data, not from the text of the source: active = GI50 up to about 1.1 µM and inactive = higher.
Could you please pick one outcome from this set? YES for active, NO for inactive

INPUT: How did this test come out for `COC(=O)c1cc2/c(=N/O)c3ccccc3sc2o1` ?
OUTPUT: NO

INPUT: Called result for `COc1ccc(-c2c(N)n(-c3cccc(C(=O)O)c3)c(=O)c3cc([N+](=O)[O-])ccc23)cc1`
OUTPUT: NO

INPUT: Entry `COc1ccc2oc(=O)c(-c3cc4c(c(C)n3)c(=O)oc3ccc(OC)cc34)cc2c1` : call = ?
OUTPUT: NO

INPUT: Hello, I am checking results. What call was entered for `N=C(N)SCC(=O)O` ?
OUTPUT: NO

INPUT: Assay outcome for `CN(C)CCCN1c2ccc([N+](=O)[O-])cc2CCc2cc([N+](=O)[O-])ccc21` : what was it?
OUTPUT: NO

INPUT: So what was the verdict on `COc1ccc(NC(=O)CC(=O)N/N=C/c2ccc(N(CCC#N)S(=O)(=O)c3ccccc3)cc2)cc1` in this test?
OUTPUT: NO

INPUT: Which outcome was assigned to `CCCCCCCCCCC/C(=N/O)c1ccc(O)c2ncccc12` in this test?
OUTPUT: NO

INPUT: Dear all, I need the recorded test outcome for FC1(F)[Se]C2C3CCC(C3)C2C1(F)F (stereo unspecified) , thank you.
OUTPUT: NO

INPUT: Recorded test outcome, item `c1ccc2c3c(c(N4CCOCC4)nc2c1)CCCC3`
OUTPUT: NO

INPUT: What was the test verdict on `COc1cc2c(cc1OC)C(=O)/C(=C/c1cc(C)c(O)c(C)c1)C2` ?
OUTPUT: YES

INPUT: Outcome? `CC1(c2cc3c(cc2Br)OCO3)SCCCS1`
OUTPUT: NO

INPUT: I would be grateful if you could indicate the recorded call for `COc1ccc(-[n+]2nc(S(=O)(=O)O)c(/C=C/c3ccc(N(C)C)cc3)cc2C#N)cc1` .
OUTPUT: NO

INPUT: Identify the outcome logged in this assay for the molecule shown: `O=C(CSc1c2ccccc2nc2ccccc12)Nc1ccccc1-c1ccccc1NC(=O)CSc1c2ccccc2nc2ccccc12`
OUTPUT: NO

INPUT: Each molecule tested received a call. Report the one for `CC(C)C[C@H](NC(=O)[C@H](CCc1ccccc1)NC(=O)c1ccc2ccccc2n1)B(O)O` .
OUTPUT: YES

INPUT: State the result this test recorded for `O=C(O)c1c2c(cc3c(=O)cc(-c4ccccc4)oc13)CCCC2` .
OUTPUT: NO

INPUT: Please state the recorded outcome for this molecule: `Nc1ccc(/C=C/c2ccc3cccnc3c2)cc1`
OUTPUT: NO

INPUT: Lab log entry: COC(=O)c1c2c(cc3c1CC1(Cc4cc5c(c(C)c4C1)CCC5)C3)CCC2 (stereo unspecified) — outcome as called in the assay?
OUTPUT: NO

INPUT: Short answer needed: outcome of this test for CN1C(=O)C(O)C[C@@H]1c1ccc(F)cc1 (stereo partly specified) ?
OUTPUT: NO

INPUT: Name the outcome recorded for `C[n+]1c(-c2ccc(/C=C/C=N\NC(=O)c3ccc(C(=O)N/N=C\C=C\c4ccc(-c5cn6ccccc6[n+]5C)cc4)cc3)cc2)cn2ccccc21` in the assay.
OUTPUT: NO

INPUT: Kindly provide the recorded test outcome for the following molecule: `O=C(O[C@H]1[C@@H](O)[C@H](n2cnc3c(Cl)ncnc32)O[C@@H]1COC(c1ccccc1)(c1ccccc1)c1ccccc1)c1ccccc1`
OUTPUT: NO

INPUT: Look up the recorded call for `Cc1ccc(C(=O)/C(C#N)=C/Nc2c(C)n(C)n(-c3ccccc3)c2=O)cc1` in this test.
OUTPUT: NO

INPUT: Hi team, can someone confirm the assay call for CC(NC1CCCC[C@@H]1O)c1ccccc1 (stereo partly specified) ?
OUTPUT: NO

INPUT: Called result for COc1cc2c3c(c1OC)-c1ccccc1C(C(O)c1ccccc1)C3N(C)CC2 (stereo unspecified)
OUTPUT: NO

INPUT: Write down the call the test reported for this molecule. Item: COC1/C(=C\c2ccccc2I)c2ccccc2N1C(C)=O (stereo unspecified)
OUTPUT: NO

INPUT: Hi team, can someone confirm the assay call for `CCCCCCCC/C=C\CCCCCCCC(=O)NCCN(CCN)C(=O)CCCCCCC/C=C\CCCCCCCC` ?
OUTPUT: NO

INPUT: Record request — test call for `O=C(NNc1ccc([N+](=O)[O-])cc1[N+](=O)[O-])/C(O)=C\C(=O)c1ccccc1`
OUTPUT: NO
